# STUDY_SYSTEM: Mitogen-activated protein kinase 1 (Homo sapiens)
# TEST_PROTOCOL: Inhibition of MAPK1 (unknown origin) at 500 nM
MEASUREMENT_KIND: inhibition (%)
Kindly provide the numeric value in % only, without the unit symbol.

Q: Item under review: COc1cc(CO)ccc1-c1cc2c(Nc3ccc(F)c(Cl)c3)ncnc2s1 . Reported inhibition?
A: 6

Q: Item: COc1ccc(C(=O)NCCN(C)C)cc1-c1cc2c(N[C@H](C)c3ccccc3)ncnc2s1
A: -1

Q: Item: COc1cc(CO)ccc1-c1cc2c(Nc3ccccc3)ncnc2s1
A: -6

Q: Item: COc1cc(CO)ccc1-c1cc2c(N[C@H](C)c3ccccc3)ncnc2s1
A: 1

* * *

The compounds listed here are annotated with their inhibition.
# STUDY_SYSTEM: Testis-specific serine/threonine-protein kinase 2 (Homo sapiens)
# TEST_PROTOCOL: Inhibition of STK22B (unknown origin) at 500 nM
Kindly provide the numeric value in % only, without the unit symbol.

Example compounds with recorded inhibition:
>>> value_measured("CN(C)CCNC(=O)c1ccc(-c2cc3c(N[C@H](CO)c4ccccc4)ncnc3s2)cc1")
1
>>> value_measured("COc1cc(C(N)=O)ccc1-c1cc2c(N[C@H](CO)c3ccccc3)ncnc2s1")
11
>>> value_measured("C#Cc1cccc(Nc2ncnc3sc(-c4ccc(CO)cc4OC)cc23)c1")
2
>>> value_measured("COc1cc(CO)ccc1-c1cc2c(Nc3ccc(F)c(Cl)c3)ncnc2s1")
1
>>> value_measured("COc1cc(CO)ccc1-c1cc2c(Nc3ccccc3)ncnc2s1")
9
>>> value_measured("COc1cc(CO)ccc1-c1cc2c(N[C@H](CO)c3ccccc3)ncnc2s1")
8

Q: Item under review: C[C@@H](Nc1ncnc2sc(-c3ccccc3C(N)=O)cc12)c1ccccc1 . Reported inhibition?
A: 5

Q: Item: C[C@@H](Nc1ncnc2sc(-c3ccc(C(=O)NCCN(C)C)cc3)cc12)c1ccccc1
A: 11

Q: Item: COc1cc(CO)ccc1-c1cc2c(N[C@H](C)c3ccccc3)ncnc2s1
A: 8

Q: Item: COc1ccc(C(=O)NCCN(C)C)cc1-c1cc2c(N[C@H](C)c3ccccc3)ncnc2s1
A: 0

* * *

# TEST_PROTOCOL: in vitro
# TEST_CONDITIONS: human, Caco-2
# Description: Efflux ratio of permeability from basolateral to apical side over apical to basolateral side in human Caco2 cells at 10 uM by LC-MS/MS analysis
MEASUREMENT_KIND: efflux ratio at 10 µM
Lab note: write the figure by itself, no unit.

Example compounds with recorded efflux ratio at 10 µM:
>>> value_measured("COc1cc(C(=O)NCCN(C)C)cc(OC)c1-c1cc2c(N[C@H](C)c3ccccc3)ncnc2s1")
40
>>> value_measured("C[C@@H](Nc1ncnc2sc(-c3cccc(C(=O)NCCN(C)C)c3)cc12)c1ccccc1")
8.9
>>> value_measured("COc1cc(C(=O)NCCN(C)C)ccc1-c1cc2c(N[C@H](C)c3ccccc3)ncnc2s1")
18

Q: Item under review: COc1ccc(C(=O)NCCN(C)C)cc1-c1cc2c(N[C@H](C)c3ccccc3)ncnc2s1 . Reported efflux ratio at 10 µM?
A: 63

* * *

# STUDY_SYSTEM: Tyrosine-protein kinase JAK2 (Homo sapiens)
# TEST_PROTOCOL: Inhibition of JAK2 (unknown origin) at 500 nM
MEASUREMENT_KIND: inhibition (%)
Kindly provide the numeric value in % only, without the unit symbol.

Example molecules with recorded inhibition:
>>> value_measured("COc1cc(CO)ccc1-c1cc2c(N[C@H](C)c3ccccc3)ncnc2s1")
7
>>> value_measured("COc1cc(CO)ccc1-c1cc2c(Nc3ccccc3)ncnc2s1")
-2
>>> value_measured("C#Cc1cccc(Nc2ncnc3sc(-c4ccc(CO)cc4OC)cc23)c1")
6

Q: Item under review: C[C@@H](Nc1ncnc2sc(-c3ccc(C(=O)NCCN(C)C)cc3)cc12)c1ccccc1 . Reported inhibition?
A: -10

Q: Item: COc1ccc(C(=O)NCCN(C)C)cc1-c1cc2c(N[C@H](C)c3ccccc3)ncnc2s1
A: -4
